experiment: growth modulation of vineyard yeast isolate – strain RM11-1a, OD600, basal, 24 h, primary screen (AID 1177);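 note: cultures grown under basal conditions with no added stressor; test concentration not given here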; conditions: S. cerevisiae RM11-1a growth, OD600, 24 h; higher = more signal, called active from +8 up or from −8 down
Calls of active or inactive are those of the source.
readoutType: z-score

Below are worked cases with known answers.
If you can, please state the reported z-score value of CCCNC(=O)[C@@]1(C)c2ccccc2C(=O)N(C(C)C)[C@H]1c1ccc(CO)cc1 .
-0.531 (inactive)

If you can, please state the reported z-score value of O=C1OCC=C[C@H]2OC34C=CCN(CCN5CCOCC5)C(=O)[C@H]3N(CCCCCCO)C(=O)[C@@H]4[C@@H]12 (stereo not given in full) .
-0.762 (inactive)

If you can, please state the reported z-score value of CCOC(=O)C[C@H]1[C@H](OC(=O)c2ccccc2-c2ccccc2)[C@@H](NC(=O)c2ccc(-c3ccccc3)cc2)c2cc(OCCCO)ccc2N1C(=O)c1ccccc1 .
1.61 (inactive)

Answer for every listed entry: what is its z-score? The entries follow.
1. CN(C)CCCN1C(=O)[C@@]2(c3ccc([N+](=O)[O-])cc3)CC(=O)N(C3CCCCC3)[C@@H]2c2ccc(CO)cc21
2. C=CC[C@]1(C(=O)NCCN2CCOCC2)N=C(c2ccc(OCCCO)cc2)O[C@H]1c1ccccc1N=[N+]=[N-]

1: -1.45 (inactive); 2: 0.393 (inactive)

These data points were gathered from PubChem BioAssay.
